Test: Cellular Toxicity (caspase-3) H-4-II-E (AID 663);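 note: cells exposed to compound for 16 hr before readout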
Details: H-4-II-E rat hepatoma, scaled: DMSO 0%, 100 µM tamoxifen 100%; at 92.2 µM (top of the series)
Records with an inconclusive call do not appear.
Listing of recorded caspase-3 activation by entry.
Only the number, expressed in %, is required.

NC(=S)NNC(N)=S	0.228

// sample O=C(O)CNC(=O)c1ccc(CO)o1 , its caspase-3 activation was -0.71

// sample Cc1cccc2sc(N)nc12 , its caspase-3 activation was -0.522

// sample C=Cc1ccccc1C=C , its caspase-3 activation was 0.884

// sample C=CCCCCCCC=C , its caspase-3 activation was 1.95

// sample N#CCc1ccccc1[N+](=O)[O-] , its caspase-3 activation was 1.83

// sample ICCc1ccccc1 , its caspase-3 activation was 0.877

// sample CC(O)CC(C)O (centres undefined) , its caspase-3 activation was 1.09

// sample CCc1ccccc1 , its caspase-3 activation was 1.3

// sample CCN(CC)c1cccc(O)c1 , its caspase-3 activation was 2.1

// sample CC(O)COC(C)(C)C (centres undefined) , its caspase-3 activation was -0.238
